Below: a set of entries, each annotated with reported EC50.
- TGT: GABA A receptor alpha-2/beta-2/gamma-2 (Homo sapiens, UniProt P18507+P47869+P47870)
- Sequence (P47870 whole entry): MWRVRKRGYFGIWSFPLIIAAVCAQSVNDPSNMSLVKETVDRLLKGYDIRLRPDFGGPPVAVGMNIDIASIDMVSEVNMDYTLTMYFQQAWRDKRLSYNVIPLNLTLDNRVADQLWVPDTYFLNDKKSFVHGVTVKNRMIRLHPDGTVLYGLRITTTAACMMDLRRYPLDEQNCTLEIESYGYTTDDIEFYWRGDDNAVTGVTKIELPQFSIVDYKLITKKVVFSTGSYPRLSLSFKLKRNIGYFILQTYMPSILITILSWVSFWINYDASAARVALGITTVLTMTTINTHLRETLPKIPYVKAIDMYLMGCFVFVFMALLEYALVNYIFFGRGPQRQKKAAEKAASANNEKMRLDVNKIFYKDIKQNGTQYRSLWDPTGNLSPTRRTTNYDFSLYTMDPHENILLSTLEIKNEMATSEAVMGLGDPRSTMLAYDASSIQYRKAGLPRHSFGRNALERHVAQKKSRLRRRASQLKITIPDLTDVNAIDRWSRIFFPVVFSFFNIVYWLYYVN
- Sequence (P18507 whole entry): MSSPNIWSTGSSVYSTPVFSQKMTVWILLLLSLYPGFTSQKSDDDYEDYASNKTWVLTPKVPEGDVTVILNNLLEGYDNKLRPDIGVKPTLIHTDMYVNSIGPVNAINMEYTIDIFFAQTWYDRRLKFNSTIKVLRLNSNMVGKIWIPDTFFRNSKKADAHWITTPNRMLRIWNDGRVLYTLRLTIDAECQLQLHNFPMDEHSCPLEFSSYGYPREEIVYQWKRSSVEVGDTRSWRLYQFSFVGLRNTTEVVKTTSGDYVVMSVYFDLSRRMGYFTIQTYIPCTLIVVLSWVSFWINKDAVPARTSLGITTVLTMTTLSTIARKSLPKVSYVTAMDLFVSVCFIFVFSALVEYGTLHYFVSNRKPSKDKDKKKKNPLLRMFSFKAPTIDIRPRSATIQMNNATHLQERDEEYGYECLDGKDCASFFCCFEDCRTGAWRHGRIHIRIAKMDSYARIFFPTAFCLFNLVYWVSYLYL
- Sequence (P47869 whole entry): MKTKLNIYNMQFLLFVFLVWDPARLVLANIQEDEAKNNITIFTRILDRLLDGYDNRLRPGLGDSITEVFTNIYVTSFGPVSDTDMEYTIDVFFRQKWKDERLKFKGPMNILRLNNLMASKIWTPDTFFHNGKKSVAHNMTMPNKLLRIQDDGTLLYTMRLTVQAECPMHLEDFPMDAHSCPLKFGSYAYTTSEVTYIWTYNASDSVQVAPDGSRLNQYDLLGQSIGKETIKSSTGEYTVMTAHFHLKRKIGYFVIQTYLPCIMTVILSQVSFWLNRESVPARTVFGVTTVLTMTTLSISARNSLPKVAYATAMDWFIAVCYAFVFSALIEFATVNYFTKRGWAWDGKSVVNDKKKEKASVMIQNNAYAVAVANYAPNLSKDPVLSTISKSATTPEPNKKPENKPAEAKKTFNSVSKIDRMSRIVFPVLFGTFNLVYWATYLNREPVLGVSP
- TEST_SUMMARY: Potentiation of GABA-evoked Cl- currents in Xenopus oocytes expressing human alpha-2-beta-2-gamma-2 subunits
- Type: functional, cell-based, Oocyte
TEST_READOUT: EC50

[
  {
    "GIVEN_SMILES": "O=C(Cc1c(-c2ccc(Cl)cc2)nc2ccc(Cl)cn12)N1CCCC1",
    "EXPERIMENTAL_VALUE": "6.6 µM"
  },
  {
    "GIVEN_SMILES": "CCCN(CCC)C(=O)Cc1c(-c2ccccc2)nc2ccc(Cl)cn12",
    "EXPERIMENTAL_VALUE": "0.13 µM"
  }
]

---

- TGT: GABA-A receptor; anion channel (Rattus norvegicus) (UniProt O09028+P15431+P18506+P18508+P19969+P20236+P23574+P23576+P28471+P28473+P30191+P62813+P63079+P63138+Q91ZM7+Q9ES14)
- TEST_SUMMARY: Percentage inhibition of [3H]flunitrazepam binding to rat brain GABA-A benzodiazepine receptor at 40 uM
Lab note: compare inhibition against 20%. Equal or greater, write Met. Smaller, write Not met.

[
  {
    "COMPOUND": "CCCN(CCC)C(=O)Cc1c(-c2ccccc2)nc2c(Br)cc(C)cn12",
    "CATEGORY_LABEL": "Met"
  },
  {
    "COMPOUND": "CCCN(CCC)C(=O)Cc1c(-c2ccccc2)nc2c(Cl)cc(Cl)cn12",
    "CATEGORY_LABEL": "Met"
  },
  {
    "COMPOUND": "CCCN(CCC)C(=O)Cc1c(-c2ccc(Cl)cc2)nc2c(Cl)cc(C(F)(F)F)cn12",
    "CATEGORY_LABEL": "Not met"
  },
  {
    "COMPOUND": "CCCN(CCC)C(=O)Cc1c(-c2ccccc2)nc2c(C)cc(Br)cn12",
    "CATEGORY_LABEL": "Met"
  },
  {
    "COMPOUND": "CCCN(CCC)C(=O)Cc1c(-c2ccc(Cl)cc2)nc2c(Cl)cc(Cl)cn12 [ALPDEM]",
    "CATEGORY_LABEL": "Not met"
  },
  {
    "COMPOUND": "CCCN(CCC)C(=O)Cc1c(-c2ccc(Cl)cc2)nc2c(Br)cc(Br)cn12",
    "CATEGORY_LABEL": "Not met"
  }
]

---

- TGT: GABA-A receptor; anion channel
- TEST_SUMMARY: Displacement of [3H]flunitrazepam from rat brain GABA-A Benzodiazepine receptor

[
  {
    "COMPOUND": "CCCN(CCC)C(=O)Cc1c(-c2ccc(Cl)cc2)nc2ccc(Br)cn12",
    "IC50 / nM": 58
  },
  {
    "COMPOUND": "CCCN(CCC)C(=O)Cc1c(-c2ccc(Cl)cc2)nc2ccc(Cl)cn12 [ALPIDEM]",
    "IC50 / nM": 26
  },
  {
    "COMPOUND": "CCCCOC(=O)Cc1c(-c2ccc(Cl)cc2)nc2ccc(Cl)cn12",
    "IC50 / nM": 2780
  },
  {
    "COMPOUND": "O=C(Cc1c(-c2ccc(Cl)cc2)nc2ccc(Cl)cn12)N1CCCCC1",
    "IC50 / nM": 240
  },
  {
    "COMPOUND": "CCN(CC)C(=O)c1c(-c2ccc(Cl)cc2)nc2ccc(Cl)cn12",
    "IC50 / nM": 8380
  },
  {
    "COMPOUND": "CCOC(=O)Cc1c(-c2ccccc2)nc2ccc(Cl)cn12",
    "IC50 / nM": 1170
  },
  {
    "COMPOUND": "O=C(Cc1c(-c2ccc(Cl)cc2)nc2ccc(Cl)cn12)N1CCCC1",
    "IC50 / nM": 92
  },
  {
    "COMPOUND": "CCCN(CCC)C(=O)Cc1c(-c2ccccc2)nc2ccc(Cl)cn12",
    "IC50 / nM": 86
  },
  {
    "COMPOUND": "CCCN(CCC)C(=O)Cc1c(-c2ccccc2)nc2ccc(I)cn12",
    "IC50 / nM": 286
  },
  {
    "COMPOUND": "CCOC(=O)Cc1c(-c2ccc(Cl)cc2)nc2ccc(Cl)cn12",
    "IC50 / nM": 695
  },
  {
    "COMPOUND": "CCCCOC(=O)Cc1c(-c2ccccc2)nc2ccc(Cl)cn12",
    "IC50 / nM": 2500
  }
]
